# Target Of Assay: MARK3 (human)
# Test Details: radiometric filter-binding kinase assay, Kinase HotSpot
# Protocol Conditions: compound 0.5 µM; ATP 10 µM
Parameter: residual activity (%)
Reply with just the number (in %).

Before answering, review these 4 worked examples.
// residual activity lookup, key: O=c1[nH]c2ccccc2n1C1CCN(Cc2ccc(-c3nc4cc5[nH]cnc5cc4nc3-c3ccccc3)cc2)CC1
103

Further, for COc1cc2ncnc(Nc3ccc(O)c(Br)c3)c2cc1OC ?
98.8

Now consider O=C(O)c1ccc2c3c1cccc3c(=O)n1c3ccccc3nc21 .
82.6

Request: c1ccc(-c2cnc(Nc3ccc(OCCN4CCCC4)cc3)s2)cc1
93.1

***
Requested field: residual activity. Item: COc1cc2c(N3CCN(C(=O)Nc4ccc(OC(C)C)cc4)CC3)ncnc2cc1OCCCN1CCCCC1
103

====

# Target Of Assay: GRK6 (human) (UniProt P43250)
# Sequence (P43250 whole entry, looked up): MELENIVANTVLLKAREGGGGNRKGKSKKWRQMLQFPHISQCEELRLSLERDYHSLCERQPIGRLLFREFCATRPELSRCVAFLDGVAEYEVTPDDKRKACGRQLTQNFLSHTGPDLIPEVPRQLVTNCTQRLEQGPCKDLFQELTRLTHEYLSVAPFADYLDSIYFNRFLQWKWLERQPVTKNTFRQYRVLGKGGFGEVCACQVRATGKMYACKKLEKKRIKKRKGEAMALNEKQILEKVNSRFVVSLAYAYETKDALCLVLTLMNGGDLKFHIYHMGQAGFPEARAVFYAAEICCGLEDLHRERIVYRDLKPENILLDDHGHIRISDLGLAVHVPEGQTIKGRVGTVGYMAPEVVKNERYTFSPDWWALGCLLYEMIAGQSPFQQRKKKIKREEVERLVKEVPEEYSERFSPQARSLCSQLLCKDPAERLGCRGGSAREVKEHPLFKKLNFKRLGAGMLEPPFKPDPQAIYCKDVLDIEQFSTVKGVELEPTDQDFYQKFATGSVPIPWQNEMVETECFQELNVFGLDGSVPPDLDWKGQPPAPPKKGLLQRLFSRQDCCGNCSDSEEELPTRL
# Test Details: radiometric filter-binding kinase assay, Kinase HotSpot
# Protocol Conditions: compound 0.5 µM; ATP 10 µM
Parameter: residual activity (%)
The response must be a number in % with no trailing unit.

Given the compound COc1cccc(-c2cc(=O)c3ccccc3o2)c1N , what is its reported residual activity?
90.7

Another compound: O=C(c1ccccc1)c1ccc(N2CCOCC2)cc1O
99.4

Continue with CCOc1cc2ncnc(Nc3cccc(Br)c3)c2cc1OCC
96

What do you have for Cc1cc(Nc2nc(-c3ccccc3)nc3ccccc23)n[nH]1 ?
75.8

Thanks! And c1ccc(-c2cnc(Nc3ccc(OCCN4CCCC4)cc3)s2)cc1 ?
96.1

Follow-up entry: O=c1cc(N2CCOCC2)oc2c(-c3ccccc3)cccc12
93

Okay, and COc1cc2c(N3CCN(C(=O)Nc4ccc(OC(C)C)cc4)CC3)ncnc2cc1OCCCN1CCCCC1 ?
105

====

# Target Of Assay: UniProt:O95819
# Sequence (O95819 whole entry, looked up): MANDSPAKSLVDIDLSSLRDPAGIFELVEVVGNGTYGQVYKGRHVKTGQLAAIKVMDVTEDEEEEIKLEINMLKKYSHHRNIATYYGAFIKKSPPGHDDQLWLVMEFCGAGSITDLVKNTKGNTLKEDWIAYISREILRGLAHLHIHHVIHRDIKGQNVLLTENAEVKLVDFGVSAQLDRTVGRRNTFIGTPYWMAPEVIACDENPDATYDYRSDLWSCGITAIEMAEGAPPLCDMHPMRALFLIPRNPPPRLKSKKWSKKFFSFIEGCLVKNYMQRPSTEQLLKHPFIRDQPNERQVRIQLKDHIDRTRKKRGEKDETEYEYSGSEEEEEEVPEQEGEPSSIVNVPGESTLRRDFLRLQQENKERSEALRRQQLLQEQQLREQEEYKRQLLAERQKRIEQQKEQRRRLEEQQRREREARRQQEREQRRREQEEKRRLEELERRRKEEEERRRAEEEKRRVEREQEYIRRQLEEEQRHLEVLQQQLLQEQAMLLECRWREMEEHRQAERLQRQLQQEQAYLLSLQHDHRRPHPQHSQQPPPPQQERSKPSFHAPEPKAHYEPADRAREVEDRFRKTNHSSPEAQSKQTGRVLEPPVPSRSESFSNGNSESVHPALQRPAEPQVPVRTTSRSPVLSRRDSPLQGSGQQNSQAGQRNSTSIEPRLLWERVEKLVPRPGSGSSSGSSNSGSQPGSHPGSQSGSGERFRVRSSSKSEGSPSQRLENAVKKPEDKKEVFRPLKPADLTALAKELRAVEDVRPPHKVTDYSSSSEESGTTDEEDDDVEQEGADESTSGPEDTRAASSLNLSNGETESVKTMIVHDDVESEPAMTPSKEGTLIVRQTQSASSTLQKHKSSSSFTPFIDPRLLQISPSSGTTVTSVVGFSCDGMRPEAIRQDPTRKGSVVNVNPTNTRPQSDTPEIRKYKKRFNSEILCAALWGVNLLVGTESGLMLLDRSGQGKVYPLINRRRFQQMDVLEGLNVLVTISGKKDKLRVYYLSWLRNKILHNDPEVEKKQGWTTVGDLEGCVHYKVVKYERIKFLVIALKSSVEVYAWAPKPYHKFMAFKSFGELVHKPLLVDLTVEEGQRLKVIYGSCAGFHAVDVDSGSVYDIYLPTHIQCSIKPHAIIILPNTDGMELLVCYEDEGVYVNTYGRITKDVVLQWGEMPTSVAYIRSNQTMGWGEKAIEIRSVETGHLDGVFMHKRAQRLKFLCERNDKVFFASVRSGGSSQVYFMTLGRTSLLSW
# Test Details: radiometric filter-binding kinase assay, Kinase HotSpot
# Protocol Conditions: compound 0.5 µM; ATP 10 µM
Parameter: residual activity (%)
I only need the number, in %, no unit after it.

For orientation, consider the following solved cases.
Item c1ccc(-c2cnc(Nc3ccc(OCCN4CCCC4)cc3)s2)cc1 has what recorded residual activity?
35.5

// query: N#Cc1c(NC(=O)c2cccc3ccccc23)sc2c1CCCC2
88.9

Further, for N#C/C(=C1/Nc2ccccc2S1)c1ccnc(NCCc2cccnc2)n1 ?
87.1

Try the compound CCc1nc(-c2ccc(OC)cc2)[nH]c1-c1ccncc1
91.9

Next up: N#CCCc1ccc2c(c1)-c1[nH]c3ccc([N+](=O)[O-])cc3c1CC(=O)N2
6.82

Okay, and COc1cc2c(cc1OC)-c1[nH]nc(Nc3cccc(F)c3)c1C2 ?
55.5

---
Fill in: residual activity of O=c1[nH]c2ccccc2n1C1CCN(Cc2ccc(-c3nc4cc5[nH]cnc5cc4nc3-c3ccccc3)cc2)CC1 is ___
99.5

Also COc1cc2ncnc(Nc3ccc(O)c(Br)c3)c2cc1OC ?
59.3

Follow-up entry: O=S(=O)(NCCNC/C=C/c1ccc(Br)cc1)c1cccc2cnccc12
43.8

====

# Target Of Assay: ULK3 (human)
# Test Details: radiometric filter-binding kinase assay, Kinase HotSpot
# Protocol Conditions: compound 0.5 µM; ATP 10 µM
Parameter: residual activity (%)
Quick note: give the figure in %, leave out the unit.

Recorded results for 3 molecules are shown here.
Consider the molecule shown here: FC(F)(F)c1ccc(/C=C/c2nc(COc3ccc(CCCCn4ccnn4)cc3)co2)cc1 What is its recorded residual activity?
99.5

Try the molecule CCc1nc(-c2ccc(OC)cc2)[nH]c1-c1ccncc1
83.4

Now the molecule COc1cc2c(Nc3ccc(Br)cc3F)ncnc2cc1OCC1CCN(C)CC1
105

Please look at the following molecule next.
Value lookup for residual activity; key = O=c1c(-c2ccc(F)cc2)c(-c2ccncc2)[nH]n1-c1ccc(Cl)cc1
94.3

====

# Target Of Assay: PASK (human) (UniProt Q96RG2)
# Sequence (Q96RG2 whole entry, looked up): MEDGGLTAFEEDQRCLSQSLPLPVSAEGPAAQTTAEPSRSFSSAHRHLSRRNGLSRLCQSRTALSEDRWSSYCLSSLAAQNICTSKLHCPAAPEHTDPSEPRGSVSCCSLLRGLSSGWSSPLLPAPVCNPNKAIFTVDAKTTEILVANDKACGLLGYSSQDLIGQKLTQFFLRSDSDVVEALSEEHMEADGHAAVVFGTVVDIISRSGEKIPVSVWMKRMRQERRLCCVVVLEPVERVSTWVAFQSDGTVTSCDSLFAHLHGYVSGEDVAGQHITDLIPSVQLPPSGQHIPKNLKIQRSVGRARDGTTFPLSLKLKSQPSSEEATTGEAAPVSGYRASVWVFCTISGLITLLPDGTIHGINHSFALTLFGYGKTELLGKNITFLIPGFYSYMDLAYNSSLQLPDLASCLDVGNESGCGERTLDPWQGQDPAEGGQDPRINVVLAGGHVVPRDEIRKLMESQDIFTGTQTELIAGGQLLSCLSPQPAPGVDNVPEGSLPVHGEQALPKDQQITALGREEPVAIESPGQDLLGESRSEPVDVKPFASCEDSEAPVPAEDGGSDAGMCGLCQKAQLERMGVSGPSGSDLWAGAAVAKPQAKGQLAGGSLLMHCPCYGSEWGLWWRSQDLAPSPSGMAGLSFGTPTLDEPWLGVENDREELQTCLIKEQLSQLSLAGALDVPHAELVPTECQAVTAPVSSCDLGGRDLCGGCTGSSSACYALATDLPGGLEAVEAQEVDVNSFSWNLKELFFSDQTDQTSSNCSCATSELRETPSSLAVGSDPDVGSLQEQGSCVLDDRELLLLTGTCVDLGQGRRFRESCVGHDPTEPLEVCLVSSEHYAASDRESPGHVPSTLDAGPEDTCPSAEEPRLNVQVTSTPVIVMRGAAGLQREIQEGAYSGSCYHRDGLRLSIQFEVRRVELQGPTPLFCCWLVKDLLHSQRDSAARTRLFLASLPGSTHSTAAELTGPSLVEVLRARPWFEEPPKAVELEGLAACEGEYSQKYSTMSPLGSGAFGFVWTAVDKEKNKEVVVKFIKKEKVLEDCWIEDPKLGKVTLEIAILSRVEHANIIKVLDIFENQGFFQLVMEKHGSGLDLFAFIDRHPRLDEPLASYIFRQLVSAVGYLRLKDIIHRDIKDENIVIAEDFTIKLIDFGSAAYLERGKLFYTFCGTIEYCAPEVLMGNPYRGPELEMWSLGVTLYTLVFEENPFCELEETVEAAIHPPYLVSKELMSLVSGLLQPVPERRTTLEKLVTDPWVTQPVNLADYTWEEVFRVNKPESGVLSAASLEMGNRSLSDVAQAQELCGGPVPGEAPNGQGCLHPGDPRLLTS
# Test Details: radiometric filter-binding kinase assay, Kinase HotSpot
# Protocol Conditions: compound 0.5 µM; ATP 10 µM
Parameter: residual activity (%)
Field: numeric (%). Do not append units.

Give the measured residual activity of Cc1cc(Nc2nc(-c3ccccc3)nc3ccccc23)n[nH]1 .
96.4

Can you check COc1cc2c(Nc3ccc(Br)cc3F)ncnc2cc1OCC1CCN(C)CC1 next?
102

Request: Nc1ncnc2c1cnn2-c1ccccc1
96.8

We next turn to a different molecule, shown below.
Recorded residual activity for CCc1nc(-c2ccc(OC)cc2)[nH]c1-c1ccncc1 , please?
96.3

====

# Target Of Assay: EPHB3 (human)
# Test Details: radiometric filter-binding kinase assay, Kinase HotSpot
# Protocol Conditions: compound 0.5 µM; ATP 10 µM
Parameter: residual activity (%)
# unit: % | format: bare number

Use the examples below as a reference point.
Look up residual activity: Nc1ncnc2c1cnn2-c1ccccc1
93.5

Now the same for O=c1[nH]c2ccccc2n1C1CCN(Cc2ccc(-c3nc4cc5[nH]cnc5cc4nc3-c3ccccc3)cc2)CC1
104

What do you have for N/C(=N\N=C/c1ccc(-c2cccc([N+](=O)[O-])c2)o1)N[N+](=O)[O-] ?
91.7

Now consider the entry below.
Given the entry CCOc1cc2ncnc(Nc3cccc(Br)c3)c2cc1OCC , report its measured residual activity.
99.7

====

# Target Of Assay: UniProt P09619
# Sequence (P09619 whole entry, looked up): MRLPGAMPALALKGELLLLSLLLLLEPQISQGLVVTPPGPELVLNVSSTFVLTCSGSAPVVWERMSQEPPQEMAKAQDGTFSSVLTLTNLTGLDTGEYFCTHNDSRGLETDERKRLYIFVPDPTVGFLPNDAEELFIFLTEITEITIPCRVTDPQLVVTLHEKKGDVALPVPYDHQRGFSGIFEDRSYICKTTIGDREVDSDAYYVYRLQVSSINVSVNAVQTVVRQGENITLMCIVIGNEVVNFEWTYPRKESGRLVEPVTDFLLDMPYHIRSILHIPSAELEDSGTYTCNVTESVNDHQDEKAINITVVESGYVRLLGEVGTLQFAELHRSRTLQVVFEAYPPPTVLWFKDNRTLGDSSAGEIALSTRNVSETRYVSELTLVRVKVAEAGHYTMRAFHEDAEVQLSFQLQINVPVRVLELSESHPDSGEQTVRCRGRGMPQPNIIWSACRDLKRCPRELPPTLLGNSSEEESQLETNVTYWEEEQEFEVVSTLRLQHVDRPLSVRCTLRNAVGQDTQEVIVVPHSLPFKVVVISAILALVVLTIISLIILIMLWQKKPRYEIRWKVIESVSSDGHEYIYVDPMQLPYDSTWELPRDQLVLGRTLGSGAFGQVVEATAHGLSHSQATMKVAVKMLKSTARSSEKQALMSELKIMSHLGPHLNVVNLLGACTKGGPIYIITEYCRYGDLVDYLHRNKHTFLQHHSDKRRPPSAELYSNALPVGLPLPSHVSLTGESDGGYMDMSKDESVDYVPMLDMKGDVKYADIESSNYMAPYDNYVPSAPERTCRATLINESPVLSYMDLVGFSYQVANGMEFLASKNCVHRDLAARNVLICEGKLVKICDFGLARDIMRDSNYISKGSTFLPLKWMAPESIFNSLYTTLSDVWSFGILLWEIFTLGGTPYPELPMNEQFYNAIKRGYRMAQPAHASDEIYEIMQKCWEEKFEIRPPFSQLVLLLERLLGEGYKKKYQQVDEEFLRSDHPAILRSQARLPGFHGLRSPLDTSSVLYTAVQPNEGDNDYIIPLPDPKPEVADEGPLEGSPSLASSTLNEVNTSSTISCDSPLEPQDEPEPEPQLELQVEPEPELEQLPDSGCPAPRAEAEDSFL
# Test Details: radiometric filter-binding kinase assay, Kinase HotSpot
# Protocol Conditions: compound 0.5 µM; ATP 10 µM
In this section we review reported residual activity values for a set of molecules.
Give the number; % is assumed, so skip it.

Sample answers from the record:
Reported residual activity, molecule O=S(=O)(NCCNC/C=C/c1ccc(Br)cc1)c1cccc2cnccc12 : ____
112

Try Nc1ncnc2c1cnn2-c1ccccc1 next.
94.7

Field entry: O=c1c(-c2ccc(F)cc2)c(-c2ccncc2)[nH]n1-c1ccc(Cl)cc1
101

New cases:
# get_value(readout='residual activity', item= O=c1cc(N2CCOCC2)oc2c(-c3ccccc3)cccc12 )
102

Now the molecule O=c1c2ccccc2[nH]c(=S)n1CCN1CCC(=C(c2ccc(F)cc2)c2ccc(F)cc2)CC1
112

Try the molecule CCOc1cc2ncnc(Nc3cccc(Br)c3)c2cc1OCC
94.8

Then this molecule: c1ccc(-c2cnc(Nc3ccc(OCCN4CCCC4)cc3)s2)cc1
28.5

What about N#C/C(=C1/Nc2ccccc2S1)c1ccnc(NCCc2cccnc2)n1 ?
103

Moving on to O=C(c1ccccc1)c1ccc(N2CCOCC2)cc1O
96.5

Next record, please: COc1cccc(-c2cc(=O)c3ccccc3o2)c1N
99.4

Thanks! And CCCCc1c(-c2ccc(O)cc2)[nH]c2nccnc12 ?
91.4

====

# Target Of Assay: JAK2 JH1 JH2 (human)
# Test Details: radiometric filter-binding kinase assay, Kinase HotSpot
# Protocol Conditions: compound 0.5 µM; ATP 10 µM
Parameter: residual activity
I'd appreciate it if you included the unit after the number.

Reference set, count: 5
I have this compound here, COc1cc2c(Nc3ccc(Br)cc3F)ncnc2cc1OCC1CCN(C)CC1 , and I need its recorded residual activity.
102%

Now this one: O=c1cc(N2CCOCC2)oc2c(-c3ccccc3)cccc12
95.1%

And what about the compound O=c1c2ccccc2[nH]c(=S)n1CCN1CCC(=C(c2ccc(F)cc2)c2ccc(F)cc2)CC1 ?
92%

Another: N#Cc1c(NC(=O)c2cccc3ccccc23)sc2c1CCCC2
103%

Then what about the compound N#C/C(=C1/Nc2ccccc2S1)c1ccnc(NCCc2cccnc2)n1 ?
106%

Next:
Item under review: N/C(=N\N=C/c1ccc(-c2cccc([N+](=O)[O-])c2)o1)N[N+](=O)[O-] . Reported residual activity?
98.8%

Also, O=C1NC(=O)c2c1c1c3ccccc3[nH]c1c1[nH]c3cc(Br)ccc3c21 please.
95.8%

====

# Target Of Assay: UniProtKB Q14012
# Sequence (Q14012 whole entry, looked up): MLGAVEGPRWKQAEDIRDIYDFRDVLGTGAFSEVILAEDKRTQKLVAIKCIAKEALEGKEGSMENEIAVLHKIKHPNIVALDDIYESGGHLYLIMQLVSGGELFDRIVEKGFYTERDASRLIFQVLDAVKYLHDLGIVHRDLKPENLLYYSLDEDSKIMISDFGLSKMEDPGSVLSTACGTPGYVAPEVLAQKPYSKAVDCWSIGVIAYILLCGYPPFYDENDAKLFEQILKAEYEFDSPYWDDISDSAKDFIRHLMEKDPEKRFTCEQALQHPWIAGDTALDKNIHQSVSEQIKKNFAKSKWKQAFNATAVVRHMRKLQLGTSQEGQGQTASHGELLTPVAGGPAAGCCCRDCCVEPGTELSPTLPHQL
# Test Details: radiometric filter-binding kinase assay, Kinase HotSpot
# Protocol Conditions: compound 0.5 µM; ATP 10 µM
Parameter: residual activity (%)
Expressed in %, but write only the number.

Worked cases, answers included:
Look up residual activity for this compound: N#C/C(=C1/Nc2ccccc2S1)c1ccnc(NCCc2cccnc2)n1
101

Param item: O=c1c2ccccc2[nH]c(=S)n1CCN1CCC(=C(c2ccc(F)cc2)c2ccc(F)cc2)CC1
98.6

What do you get for CCCCc1c(-c2ccc(O)cc2)[nH]c2nccnc12 ?
92.5

Consider the additional compound presented here.
Which residual activity value belongs to O=C1NC(=O)c2cc(Nc3ccc(F)cc3)c(Nc3ccc(F)cc3)cc21 ?
104

====

# Target Of Assay: MAP3K14 (human) (UniProt Q99558)
# Test Details: radiometric filter-binding kinase assay, Kinase HotSpot
# Protocol Conditions: compound 0.5 µM; ATP 10 µM
Attribute: residual activity
Provide only the numeric value, understood in %.

Some entries whose results are on file:
// lookup residual activity for N#C/C(=C1/Nc2ccccc2S1)c1ccnc(NCCc2cccnc2)n1
109

Field entry: O=C1NC(=O)c2c1c1c3ccccc3[nH]c1c1[nH]c3cc(Br)ccc3c21
101

Similarly, Cn1cc(/C=C2\C(=O)Nc3ccc(S(N)(=O)=O)cc32)c2ccccc21 ?
123

Next:
Look at this molecule and give its reported residual activity. CCOc1cc2ncnc(Nc3cccc(Br)c3)c2cc1OCC
93.4
